Assay: Therapeutic index, ratio of CC50 for cytotoxicity against human HepDES19 cells assessed as reduction in cell viability measured after 5 days by CCK-8 assay to IC50 for antiviral activity against HBV infected in human HepDES19 cells assessed as reduction in HBV cccDNA production by measuring inhibition of HBeAg secretion incubated for 5 days by ELISA
Type: toxicity, cell-based
Details: time 5 day, read-out: Ratio CC50/IC50
Overview of recorded selectivity ratio at 120 h for various compounds
endpoint: selectivity ratio at 120 h

compound_smiles=O=C(Nc1ccc2c(=O)c3cccc(F)c3oc2c1)c1ccncc1F result="> 20.6"
compound_smiles=O=C(Nc1ccc2c(=O)c3cccc(F)c3oc2c1)c1ccncc1 result="> 134"
compound_smiles=O=C(Nc1ccc2c(=O)c3cccc(F)c3oc2c1)c1ccccc1 result="> 53"
compound_smiles=O=C(Nc1ccc2c(=O)c3cccc(F)c3oc2c1)c1ccccc1Cl result="> 38"
compound_smiles=O=C(Nc1ccc2c(=O)c3cccc(F)c3oc2c1)c1ccccc1O result=5

Where do these numbers come from? They come from ChEMBL document CHEMBL5137099.
